Source: the supplement of paper PMC4840960

- Test system: E18 rat cortical neuron-glia co-culture;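 also: MBP fiber length per Olig2+ nucleus over MBP area × intensity per Olig2+ nucleus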
- Protocol Notes: fiber score / MBP score (myelination specific beyond OL differentiation) (ratio); higher = more myelination-specific MBP alignment
- Conditions: 1 µM; treatment time: 8 days (DIV5-DIV13)
Use 1 when the recorded fiber score / MBP score is no lower than 0.8; use -1 when it is lower.

Problem: Can Nc1ccn([C@H]2CC[C@@H](CO)O2)c(=O)n1 [Zalcitabine] be said to have fiber score / MBP score at or above 0.8?
Result: 1

Problem: Can CC12CC3CC(C)(C1)CC(N)(C3)C2 [Memantine] be said to have fiber score / MBP score at or above 0.8?
Result: 1

Problem: Can CC(C)c1nc(CN(C)C(=O)N[C@H](C(=O)N[C@@H](Cc2ccccc2)C[C@H](O)[C@H](Cc2ccccc2)NC(=O)OCc2cncs2)C(C)C)cs1 [Ritonavir] be said to have fiber score / MBP score at or above 0.8?
Result: -1

Problem: Can Cc1cccc(Nc2ccncc2S(=O)(=O)NC(=O)NC(C)C)c1 [Torsemide] be said to have fiber score / MBP score at or above 0.8?
Result: 1

Problem: Can COc1cc2nc(N(C)CCCNC(=O)C3CCCO3)nc(N)c2cc1OC (stereo not given) [Alfuzosin] be said to have fiber score / MBP score at or above 0.8?
Result: -1

Problem: Can Cc1cn([C@H]2C=C[C@@H](CO)O2)c(=O)[nH]c1=O [Stavudine] be said to have fiber score / MBP score at or above 0.8?
Result: -1

Problem: Can CCc1ccc(CCOc2ccc(CC3SC(=O)NC3=O)cc2)nc1 (stereo not given) [Pioglitazone] be said to have fiber score / MBP score at or above 0.8?
Result: 1

Problem: Can C/C=C1\[C@H]2C=C(C)C[C@]1(N)c1ccc(=O)[nH]c1C2 [Huperzine A] be said to have fiber score / MBP score at or above 0.8?
Result: 1

Problem: Can CCc1nc(N)nc(N)c1-c1ccc(Cl)cc1 [Pyrimethamine] be said to have fiber score / MBP score at or above 0.8?
Result: 1
